Test settings: in isopropanol, 288.15 K
Measured property: solubility (mole fraction)
Keep the answer to the number alone.

Challenge: Any idea what its solubility (mole fraction) is? The molecule is C=CC1=C(C(=O)O)N2C(=O)[C@@H](NC(=O)/C(=N\OCC(=O)O)c3csc(N)n3)[C@H]2SC1.O.O.O
Response given: 0.00128

---

Test settings: in n-pentanol, 313.15 K
Measured property: solubility (mole fraction)

Challenge: Any idea what its solubility (mole fraction) is? The molecule is C=CC1=C(C(=O)O)N2C(=O)[C@@H](NC(=O)/C(=N\OCC(=O)O)c3csc(N)n3)[C@H]2SC1.O.O.O
Response given: 0.00191
